# Test system: BT-549 breast
# assay procedure: NCI-60 one-dose screen, 48 h (100 = growth as untreated, 0 = no growth, -100 = all killed)
# condition context: 10 µM
This is part of a sample that, as a whole, favours compounds with a hit. Of some 83,000 tested, about 20% had one in any assay.
List of growth values.
quantity kind: growth (%)

[[record]]
compound = "Cc1cc(NC(=O)c2ccc(C)c(Nc3nccc(-c4cccnc4)n3)c2)cc(-n2cnc(C)c2)c1"
quantity_kind = "growth"
numeric_result = 41.1

[[record]]
compound = "O=c1oc2c(cc1-c1ccc(F)cc1)C(O)Oc1ccccc1-2 (configuration not stated)"
quantity_kind = "growth"
numeric_result = 87.6

[[record]]
compound = "CNC(=O)c1c(I)c(NC(C)=O)c(I)c(C(=O)O)c1I"
quantity_kind = "growth"
numeric_result = 113

[[record]]
compound = "Cc1ccc(/C=C2/C(=O)N(C)c3ccc(S(=O)(=O)Nc4ccc(C(C)(C)C)cc4)cc32)s1"
quantity_kind = "growth"
numeric_result = 97.1

[[record]]
compound = "COc1ccc(-c2nn(-c3cccc(Cl)c3)cc2-c2cc(-c3ccccc3)[nH]c(=O)c2C#N)cc1"
quantity_kind = "growth"
numeric_result = 3.07

[[record]]
compound = "O=C1/C=C/[C@@H](O)[C@@H]2C[C@@H](O)C[C@H]2/C=C/CCC[C@H](C(F)(F)F)O1"
quantity_kind = "growth"
numeric_result = 15.8

[[record]]
compound = "COc1cc(C2C(C#N)=C(N)Oc3cc(O)ccc32)cc(OC)c1OC (configuration not stated)"
quantity_kind = "growth"
numeric_result = 58.5


* * *

# Tested on: RPMI-8226 leukemia
# assay procedure: NCI-60 one-dose screen, 48 h
# condition context: 10 µM
# Procedure: Growth inhibition of the RPMI-8226 human tumor cell line is measured as a screen for anti-cancer activity. Cells are grown in 96 well plates and exposed to the test compound for 48 hours. Compounds are tested at a single concentration, which is 10^-5 M for most compounds. The reported endpoint is percent growth (GI% or GIPRCNT), where numbers from 0 - 100% represent growth inhibition, and numbers from -100% - 0 represent cell death. For example, a value of 40 represents 60% growth inhibition. […]
Compounds without any hit were thinned out: in the full panel of roughly 83,000, 20% have a hit. Active and inactive are the calls of the source. The calls were made as follows: active = growth percent below 10; inactive = the rest.
Possible outcomes: 1 (active), -1 (inactive)

[[record]]
compound = "CC[C@@H]1NC(=O)[C@H]([C@H](O)[C@H](C)C/C=C/c2ccc(CN3C(=O)CCCC3=O)cc2)N(C)C(=O)[C@H](C(C)C)N(C)C(=O)[C@H](CC(C)C)N(C)C(=O)[C@H](CC(C)C)N(C)C(=O)[C@@H](C)NC(=O)[C@H](C)NC(=O)[C@H](CC(C)C)N(C)C(=O)[C@H](C(C)C)NC(=O)[C@H](CC(C)C)N(C)C(=O)CN(C)C1=O"
class = 1

[[record]]
compound = "N#CC1=C(N)Oc2cc(N)ccc2C1c1cccnc1 (centres undefined)"
class = -1

[[record]]
compound = "CC(C)Cc1ccc([C@H](C)C(=O)O)cc1"
class = -1

[[record]]
compound = "COc1ccc(-c2onc(N)c2-c2cc(OC)c3c(c2)OCO3)cc1"
class = -1


* * *

# System: M14 melanoma
# assay procedure: NCI-60 one-dose screen, 48 h
# condition context: 10 µM
The panel holds about 83,000 compounds, 20% with a hit somewhere; the sample as a whole holds those more often. Activity calls are given as the source filed them. Rule for the calls: active = growth percent below 10; inactive = the rest.
Possible outcomes: True for active, False for inactive

[[record]]
compound = "CCC(CC)n1c(C)cc(=O)n1C(CC)CC"
class = "False"

[[record]]
compound = "COc1cc(/C=C/c2cc(/C=C/c3ccc(O)c(OC)c3)[nH]c(=O)n2)ccc1O"
class = "False"

[[record]]
compound = "CCOC(=O)CN(c1sc(C)c(C)c1C(=O)OCC)S(=O)(=O)c1ccc(C)cc1"
class = "False"

[[record]]
compound = "CN(C)c1ccc(/C=N/NC(=O)c2cccc3ccccc23)c(Cl)c1"
class = "False"

[[record]]
compound = "CCN(CC)CCCC(Nc1c2ccc(Cl)cc2nc2ccc(OC)cc12)c1ccc(F)cc1 (stereo not given)"
class = "True"

[[record]]
compound = "COc1cccc2ccc(CC(O)(c3ccccc3)c3ccccc3)nc12"
class = "False"

[[record]]
compound = "CS(=O)(=O)c1nccc(-c2c(-c3cccc(OCc4ccc(F)cc4)c3)nc3sccn23)n1"
class = "False"

[[record]]
compound = "Cc1cc(Cl)ccc1Nc1nc(C(F)(F)F)ccc1C(=O)N/N=C/c1cccc(O)c1"
class = "False"

[[record]]
compound = "CCCCC1(O)CCCCC1"
class = "False"

[[record]]
compound = "IC(I)I"
class = "False"

[[record]]
compound = "Nc1cc(-c2ccncc2)c[nH]c1=O"
class = "False"

[[record]]
compound = "COc1ccc(Nc2cnc3cc(NS(=O)(=O)c4ccc(C)cc4)ccc3n2)cc1"
class = "False"

[[record]]
compound = "OCCn1cccn1"
class = "False"

[[record]]
compound = "CCOC(=O)C1C(C(=O)OCC)C2C(=O)C3C(C(=O)OCC)C(C(=O)OCC)C3C(=O)C12 (stereo not given)"
class = "False"

[[record]]
compound = "CC1CCCC(C(=O)O)C1C(=O)O (stereo not given)"
class = "False"


* * *

# System: NCI-H460 lung
# assay procedure: NCI-60 one-dose screen, 48 h
# condition context: 10 µM
The panel holds about 83,000 compounds, 20% with a hit somewhere; the sample as a whole holds those more often. Activity calls are given as the source filed them. Rule for the calls: active = growth percent below 10; inactive = the rest.
Possible outcomes: active, inactive

[[record]]
line_notation = "Cc1c2c[n+](C(C)C)ccc2c(C)c2c1[nH]c1ccccc12"
class = "active"

[[record]]
line_notation = "NS(=O)(=O)c1ccc(N2N=C(c3ccccc3)CCC2=O)cc1"
class = "inactive"

[[record]]
line_notation = "CC(=O)[C@H]1CC[C@]2(C)[C@@H]1CC[C@@H]1[C@@]3(C)CC(CCC#N)(CCC#N)C(=O)C(C)(C)[C@@H]3CC[C@]12C"
class = "inactive"

[[record]]
line_notation = "O=C1c2ccccc2C(=O)c2c1ccc(C(Br)Br)c2[N+](=O)[O-]"
class = "inactive"

[[record]]
line_notation = "COCCn1cc(-c2nc(-c3cccnc3)cs2)c2cc(F)ccc21"
class = "inactive"

[[record]]
line_notation = "NS(=O)(=O)c1ccc(Br)cc1"
class = "inactive"


* * *

# Tested on: CAKI-1 renal
# assay procedure: NCI-60 one-dose screen, 48 h (100 = growth as untreated, 0 = no growth, -100 = all killed)
# condition context: 10 µM
The panel holds about 83,000 compounds, 20% with a hit somewhere; the sample as a whole holds those more often. Calls of active or inactive are those of the source. Rule for the calls: active = growth percent below 10; inactive = the rest.
quantity kind: growth

[[record]]
molecule = "c1ccc(CSc2ncccc2-c2nnc(SCCN3CCOCC3)o2)cc1"
result = "100% (inactive)"

[[record]]
molecule = "C=CCN(CC=C)C(=O)[C@H](CC)[C@@H]1CC[C@@H](C)[C@@H]([C@H](C)[C@@H](O)[C@@H](C)C(=O)[C@H](CC)C2O[C@]3(C=C[C@@H](O)[C@]4(CC[C@@](C)([C@H]5CC[C@](O)(CC)[C@H](C)O5)O4)O3)[C@H](C)C[C@@H]2C)O1 (stereo partly drawn)"
result = "1.41% (active)"

[[record]]
molecule = "COc1cccc(C2C(C#N)=C(N)Oc3cc(N)ccc32)c1 (stereo not drawn)"
result = "31.9% (inactive)"


* * *

# System: SK-MEL-5 melanoma
# assay procedure: NCI-60 one-dose screen, 48 h (100 = growth as untreated, 0 = no growth, -100 = all killed)
# condition context: 10 µM
The panel holds about 83,000 compounds, 20% with a hit somewhere; the sample as a whole holds those more often.
List of growth values.
quantity kind: growth (%)

[[record]]
molecule = "Cc1nc2n(c(=O)c1CCN1CCC(c3noc4cc(F)ccc34)CC1)CCC[C@@H]2O"
unit_info = "%"
numeric_result = 100

[[record]]
molecule = "Cc1cc(O)ccc1C1=NN(c2ccc(S(C)(=O)=O)cc2)C(=O)CC1"
unit_info = "%"
numeric_result = 68.3

[[record]]
molecule = "N#Cc1c(-c2ccc(Cl)cc2)csc1NC(=O)Nc1ccc(Cl)c(C(F)(F)F)c1"
unit_info = "%"
numeric_result = -24.2

[[record]]
molecule = "COc1ccc(N=Nc2cc(OC)c(OC)c(OC)c2)cc1"
unit_info = "%"
numeric_result = 80

[[record]]
molecule = "Cc1ccccc1N1C(=O)c2cc(S(N)(=O)=O)c(Cl)cc2NC1C (configuration not stated)"
unit_info = "%"
numeric_result = 104

[[record]]
molecule = "Fc1ccc(C(c2ccc(F)cc2)C(Cl)Cl)cc1"
unit_info = "%"
numeric_result = 101

[[record]]
molecule = "O=C(Nc1nc(-c2ccccc2)nc2c1sc(=S)n2-c1ccccc1)C(F)(F)F"
unit_info = "%"
numeric_result = 90.4

[[record]]
molecule = "COc1ccc(-c2nn(-c3cccc(Cl)c3)cc2-c2c(C#N)c(N)n(N)c(=O)c2C#N)cc1"
unit_info = "%"
numeric_result = 81.9

[[record]]
molecule = "COc1ccc(-c2cc(-c3ccccc3)nc(SCCCCCCC(=O)NO)n2)cc1"
unit_info = "%"
numeric_result = 13.1

[[record]]
molecule = "CCCCN(CCCC)C(=O)[C@H](CC)[C@@H]1CC[C@@H](C)[C@@H]([C@H](C)[C@@H](O)[C@@H](C)C(=O)[C@H](CC)C2O[C@]3(C=CC(=O)[C@]4(CC[C@@](C)([C@H]5CC[C@](O)(CC)[C@H](C)O5)O4)O3)[C@H](C)C[C@@H]2C)O1 (some centres not stated)"
unit_info = "%"
numeric_result = 18

[[record]]
molecule = "COc1ccc(/C=C2\\CCCC3=C2NC(N)=NC3c2ccc(OC)c(OC)c2)cc1OC (configuration not stated)"
unit_info = "%"
numeric_result = 39.7

[[record]]
molecule = "COc1ccc2c(c1)CC=C1[C@@H]2CC[C@]2(C)C(=O)/C(=N/O)C[C@@H]12"
unit_info = "%"
numeric_result = 89.7

[[record]]
molecule = "CCCC1(CN2c3ccccc3Sc3ccc(Cl)cc32)CCN(CC)C1 (configuration not stated)"
unit_info = "%"
numeric_result = -95.9

[[record]]
molecule = "CCn1c(CSc2nc3ccccc3c(=O)n2CCc2ccccc2)n[nH]c1=S"
unit_info = "%"
numeric_result = 82.4

[[record]]
molecule = "O=C(/C=C/c1cccc(B(O)O)c1)c1cccc(B(O)O)c1"
unit_info = "%"
numeric_result = 22.1

[[record]]
molecule = "O=C(Nc1cc([N+](=O)[O-])c2[nH]c(=O)c3ccccc3c2c1)C(F)(F)F"
unit_info = "%"
numeric_result = 91

[[record]]
molecule = "O=c1cn[nH]c2ccc(Br)cc12"
unit_info = "%"
numeric_result = 100

[[record]]
molecule = "Nc1ccc(/C=N/Nc2ccnc3c(O)cccc23)c2cccnc12"
unit_info = "%"
numeric_result = 82.3

[[record]]
molecule = "COc1ccc(/C=C2/SC(=S)NC2=O)c(OC)c1OC"
unit_info = "%"
numeric_result = 73.8

[[record]]
molecule = "CCCCCC(=O)O[C@]1(C(C)=O)CCC2C3CCC4=CC(=O)CC[C@]4(C)C3CC[C@@]21C (some centres not stated)"
unit_info = "%"
numeric_result = -1.8

[[record]]
molecule = "C(=N\\Nc1ncnc2sc3c(c12)CCNC3)/c1cccc2ccccc12"
unit_info = "%"
numeric_result = 97.1

[[record]]
molecule = "Nc1ccn(Cc2nnc(CCC(=O)c3nc4ccccc4[nH]3)o2)c(=O)n1"
unit_info = "%"
numeric_result = 68.9

